System: E13 (patient-derived glioblastoma stem cells of classical subtype)
EXPERIMENT SUMMARY: phenotypic distance (Euclidean, principal components) from DMSO controls (arbitrary units); higher = stronger morphological change
CONDITIONS: 3000 nM; exposure time: 72 h
Where a name gives a salt, the structure may show the parent alone.
Reported values of phenotypic distance for individual entries

COMPOUND	phenotypic distance
CCC(C)(C)C(=O)O[C@H]1C[C@@H](C)C=C2C=C[C@H](C)[C@H](CC[C@@H]3C[C@@H](O)CC(=O)O3)[C@H]21	4.02
CC(C)NCC(O)c1cc(O)cc(O)c1 (configuration not stated) [Metaproterenol sulfate, orciprenaline sulfate]	0.72
Nc1ncn([C@@H]2O[C@H](CO)[C@@H](O)[C@H]2O)c(=O)n1	6.57
COc1cc2c[n+](C)c3c4cc5c(cc4ccc3c2cc1OC)OCO5 [Nitidine chloride]	4.56
Cc1cc(Nc2cc(CN3CCOCC3)c3nc(C)c(Cc4ccc(Cl)cc4F)n3n2)n[nH]1	2.7
CC(=O)OC[C@H]1O[C@@H]([S-])[C@H](OC(C)=O)[C@@H](OC(C)=O)[C@@H]1OC(C)=O.CCP(CC)CC.[Au+]	5.8
COc1cc([C@@H]2c3cc4c(cc3[C@@H](O[C@@H]3O[C@@H]5CO[C@@H](c6cccs6)O[C@H]5[C@H](O)[C@H]3O)[C@H]3COC(=O)[C@H]23)OCO4)cc(OC)c1O [Teniposide]	6.24

###

Reported values of phenotypic distance for individual entries
Test system: E57 (patient-derived glioblastoma stem cells of mesenchymal subtype)
EXPERIMENT SUMMARY: phenotypic distance (Euclidean, principal components) from DMSO controls (arbitrary units); higher = stronger morphological change
CONDITIONS: 111.1111111 nM; exposure time: 72 h
Structures can show the parent of a compound that is named as a salt.
VALUE TYPE: phenotypic distance

>>> print(df.to_string())
                                   compound  system_tested           value_type  result
0    COC(=O)Nc1nc2cc(C(=O)c3cccs3)ccc2[nH]1            E57  phenotypic distance    6.23
1  CCN(CC)CCCC(C)Nc1c2ccc(Cl)cc2nc2ccc(OC)cc12 (centres undefined) [Quinacrine dihydrochloride hydrate]            E57  phenotypic distance   0.923
2  CC(C)C[C@H](NC(=O)[C@H](Cc1ccccc1)C[C@@H](O)[C@H](Cc1ccccc1)NC(=O)OC(C)(C)C)C(=O)N[C@@H](Cc1ccccc1)C(N)=O            E57  phenotypic distance   0.783
3  O=C(O)c1ccc(-c2c[nH]c3ncc(-c4ccccc4)cc23)cc1C1CCCC1            E57  phenotypic distance    1.04

###

Tested on: E57
EXPERIMENT SUMMARY: phenotypic distance (Euclidean, principal components) from DMSO controls (arbitrary units); higher = stronger morphological change
CONDITIONS: 333.3 nM; exposure time: 72 h
Binary classification by phenotypic distance, with 0.7 as an inclusive lower bound for T; all other cases are F.

>>> df
                                   compound  class
0                     S=c1[nH]cnc2nc[nH]c12      F
1  CCn1cc(C(=O)O)c(=O)c2cc(F)c(N3CCNCC3)nc21      F
2  CCN1CCN(C(=O)Cc2ccc(Nc3ncc(F)c(Nc4ccc(C(=O)Nc5ccccc5Cl)cc4)n3)cc2)CC1      T
3  Cc1ccc(C(=O)Nc2ccc(CN3CCN(C)CC3)c(C(F)(F)F)c2)cc1C#Cc1cnc2cccnn12      T
4  C[C@]12CC[C@H](O)C[C@H]1CC[C@@H]1[C@@H]2C[C@@H](O)[C@]2(C)[C@@H](C3=CC(=O)OC3)CC[C@]12O      T
5  O=C(/C=C\n1cnc(-c2cc(C(F)(F)F)cc(C(F)(F)F)c2)n1)NNc1cnccn1 [Selinexor]      T
6  Clc1ccc(C(Cn2ccnc2)OCc2ccsc2Cl)c(Cl)c1 (stereo not drawn)      T

###

Reported values of phenotypic distance for individual entries
Test system: E34 (patient-derived glioblastoma stem cells of proneural subtype)
EXPERIMENT SUMMARY: phenotypic distance (Euclidean, principal components) from DMSO controls (arbitrary units); higher = stronger morphological change
CONDITIONS: 1000 nM; exposure time: 72 h
Counter-ions that a name gives are not always drawn.
VALUE TYPE: phenotypic distance

COMPOUND	SYSTEM TESTED	READOUT NUMBER
CC(C)N1CCN(c2ccc(OCC3COC(Cn4cncn4)(c4ccc(Cl)cc4Cl)O3)cc2)CC1 (stereo not drawn) [Terconazole]	E34	0.745
N=c1ccn2c(n1)O[C@H]1[C@H](O)[C@@H](CO)O[C@H]12 [Ancitabine hydrochloride]	E34	3.78
CN1C(=O)[C@@]23C[C@]4([C@]56C[C@@]78SS[C@@](CO)(C(=O)N7[C@H]5Nc5ccccc56)N(C)C8=O)c5ccccc5N[C@@H]4N2C(=O)[C@]1(CO)SS3 [Chaetocin]	E34	13
O=C(Oc1cccc2cccnc12)c1ccccc1 [Benzoxiquine]	E34	1.42
C[C@@H]1CN([C@H]2CC[C@](C#N)(c3ccc(F)cc3)CC2)CC[C@]1(C(=O)O)c1ccccc1 [Levocabastine hydrochloride]	E34	0.79
Nc1nc(=O)c2nc(CNc3ccc(C(=O)N[C@@H](CCC(=O)O)C(=O)O)cc3)cnc2[nH]1 [Folic acid]	E34	0.38
COC(=O)[C@@H]1[C@H]2C[C@H]3c4[nH]c5ccccc5c4CCN3C[C@@H]2CC[C@@H]1O [Yohimbine hydrochloride]	E34	0.744
Cn1ncnc1[C@H]1c2n[nH]c(=O)c3cc(F)cc(c23)N[C@@H]1c1ccc(F)cc1 [Talazoparib]	E34	2.98

###

Tested on: FT3469 (normal neural stem cell line)
EXPERIMENT SUMMARY: phenotypic distance (Euclidean, principal components) from DMSO controls (arbitrary units); higher = stronger morphological change
CONDITIONS: 12.3 nM; exposure time: 72 h

COMPOUND	phenotypic distance
C[C@@]12C(=O)OC(=O)[C@]1(C)[C@H]1CC[C@@H]2O1	0.532
Cc1ccc(NC(=O)c2ccc3c(c2)OCCO3)cc1NC(=O)c1ccc2nc(OCCN3CCCC3)ccc2c1	3.04
CCCCCC[C@H]1C(=O)O[C@H](C)[C@H](NC(=O)c2cccc(NC=O)c2O)C(=O)O[C@@H](C)[C@@H]1OC(=O)CC(C)C [Antimycin A]	1.47
O=C(/C=C\n1cnc(-c2cc(C(F)(F)F)cc(C(F)(F)F)c2)n1)NNc1cnccn1 [Selinexor]	2.14
CC(C)C[C@H](NC(=O)[C@H](CCc1ccccc1)NC(=O)CN1CCOCC1)C(=O)N[C@@H](Cc1ccccc1)C(=O)N[C@@H](CC(C)C)C(=O)[C@@]1(C)CO1	7.47
CC(=O)O[C@H]1C[C@H](O[C@H]2[C@@H](O)C[C@H](O[C@H]3[C@@H](O)C[C@H](O[C@H]4CC[C@@]5(C)[C@H](CC[C@@H]6[C@@H]5C[C@@H](O)[C@]5(C)[C@@H](C7=CC(=O)OC7)CC[C@]65O)C4)O[C@@H]3C)O[C@@H]2C)O[C@H](C)[C@H]1O[C@@H]1O[C@H](CO)[C@@H](O)[C@H](O)[C@H]1O [Lanatoside C]	3.52
NCCCP(=O)(O)O	0.83
Clc1ccc(C(Cn2ccnc2)OCc2ccsc2Cl)c(Cl)c1 (stereo not given)	1.57
CC[C@@]1(O)C(=O)OCc2c1cc1n(c2=O)Cc2cc3cc(O)ccc3nc2-1 [Hydroxy Camptothecine]	1.79
Cc1cc(C)c(CN2CCc3c(Cl)cc(-c4c(C)noc4C)c(Cl)c3C2=O)c(=O)[nH]1	0.456

###

System: E21 (patient-derived glioblastoma stem cells of mesenchymal subtype);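 note: nuclei counted by high-content imaging of Hoechst-stained cells in laminin-coated 384-well plates, relative to 0.1% DMSO vehicle wells, with staurosporine as cell-death control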
EXPERIMENT SUMMARY: surviving fraction (nuclei count normalised to DMSO); higher = more cells surviving (less toxic)
CONDITIONS: 37 nM; exposure time: 72 h
Where a name gives a salt, the structure may show the parent alone.
VALUE TYPE: surviving fraction

>>> print(df.to_string())
                                   compound  readout_number
0  Nc1ccn([C@@H]2O[C@H](CO)[C@@H](O)C2(F)F)c(=O)n1 [Gemcitabine HCl]           0.126
1  COc1ccc2c(c1)CC[C@@H]1[C@@H]2CC[C@]2(C)[C@@H](NCCCCCCN3C(=O)CCC3=O)CC[C@@H]12           0.951
2  CC[C@@]1(O)C(=O)OCc2c1cc1n(c2=O)Cc2cc3cc(O)ccc3nc2-1 [Hydroxy Camptothecine]            0.12
3  C[C@@]12C(=O)OC(=O)[C@]1(C)[C@H]1CC[C@@H]2O1           0.984
4  c1ccc2c(c1)[I+]c1ccccc1-2 [Diphenyleneiodonium chloride]           0.672
5  CCc1c2c(nc3ccc(OC(=O)N4CCC(N5CCCCC5)CC4)cc13)-c1cc3c(c(=O)n1C2)COC(=O)[C@]3(O)CC           0.918
6  Clc1ccc(COC(Cn2ccnc2)c2ccc(Cl)cc2Cl)c(Cl)c1 (stereo not drawn)           0.979
7  Cc1ccc2c(c1)C1(CCN(CCc3nc(-c4ccccc4)oc3C)CC1)OC(=O)N2           0.956

Reference source: the supplement of paper PMC13207355
